Data origin, for the record: ChEMBL document CHEMBL1201862

Listed below: GI50 values for each entry.
- Test system: SNB-75
- TEST_DETAILS: NCI tumour cell line growth inhibition, 48 h
Active and inactive are the calls of the source. Rule as the data show it: active = GI50 up to about 1.1 µM and inactive = higher.

* Cc1[nH]c(=O)[nH]c(=O)c1/C=C/C(=O)NC(CO)CC(C)C (stereo unspecified) | 226 µM (inactive)

Continue with the next compound.
IN: // query GI50 value for entry COC(=O)N1CC2(CO)C3CC=C(C(=O)Nc4ccccc4Br)C2C1C3Br (stereo unspecified)
OUT: > 50 µM (inactive)

---

- Test system: Hs-578T
- TEST_DETAILS: NCI tumour cell line growth inhibition, 48 h
The source made the active and inactive calls. No stated cut-off is given here; in the data, active = GI50 up to about 1.1 µM and inactive = higher.
Listed below: GI50 values for each entry.

- CC(C)/C(Cl)=N/OC(=O)Nc1cccc(C(F)(F)F)c1: 9.55 µM (inactive)
- O=[N+]([O-])c1ccc2c(c1)nc(Cc1ccc(Cl)cc1)n2C[C@@H]1CCCN2CCCCC12 (stereo not given in full): 13.5 µM (inactive)
- CCOC(=O)C(C)c1nc2cc3cccnc3c(Cl)c2[nH]c1=O (stereo not given): 54.1 µM (inactive)

IN: // query GI50 value for entry CC(=O)O[C@H]1CCc2c(cc(N)c3c2C(=O)C[C@]2(C)C([C@H](C)CCCC(C)C)CCC32C)C1(C)C (stereo not given in full)
OUT: 17.1 µM (inactive)

IN: Next up: Cn1c2ccccc2c(=O)c2c(O)cc3c(c21)CC(C1(C)CO1)O3 (stereo not given)
OUT: 2 µM (inactive)

IN: Next up: CC[C@@]1(O)C(=O)OCc2c1c(Cl)c1n(c2=O)Cc2cc3ccccc3nc2-1
OUT: 31.4 µM (inactive)

IN: Next up: CCOC(=O)C(=O)C(/C(=N/N(C)C)C(=O)Nc1ccc(C)cc1C)c1nc2ccccc2nc1O (stereo not given)
OUT: > 100 µM (inactive)

IN: Next up: CC(=O)Oc1ccc2oc(=O)cc(C)c2c1
OUT: > 100 µM (inactive)

IN: Next up: C[C@]12CCNC(=O)C=C1CC[C@@H]1C2CC[C@@]2(C)C1CC[C@@H]2OC(=O)COc1ccc(N(CCCl)CCCl)cc1 (stereo not given in full)
OUT: 17.7 µM (inactive)

IN: Next up: CCCCCCCCCCCCCCCCCCNC(=S)NC=C1C(=O)c2ccccc2C1=O
OUT: 16.3 µM (inactive)

IN: Next up: Cc1cccc2c1CC(C1OC(=O)c3c(C)cccc31)C2=O (stereo not given)
OUT: > 100 µM (inactive)

IN: Next up: O=C1/C(=C/C=C/c2ccccc2)N=C(c2ccccc2)N1c1ccc(S(=O)(=O)Nc2nccs2)cc1
OUT: 37.8 µM (inactive)

IN: Next up: CCCCCCCCCCCCNC(=O)NCC(OCC)OCC
OUT: > 10 µM (inactive)
